pIC50 for assorted molecules
- assayedTarget: recombinant human SAE enzyme (Homo sapiens (Human))
- Sequence (Q9UBT2 whole entry): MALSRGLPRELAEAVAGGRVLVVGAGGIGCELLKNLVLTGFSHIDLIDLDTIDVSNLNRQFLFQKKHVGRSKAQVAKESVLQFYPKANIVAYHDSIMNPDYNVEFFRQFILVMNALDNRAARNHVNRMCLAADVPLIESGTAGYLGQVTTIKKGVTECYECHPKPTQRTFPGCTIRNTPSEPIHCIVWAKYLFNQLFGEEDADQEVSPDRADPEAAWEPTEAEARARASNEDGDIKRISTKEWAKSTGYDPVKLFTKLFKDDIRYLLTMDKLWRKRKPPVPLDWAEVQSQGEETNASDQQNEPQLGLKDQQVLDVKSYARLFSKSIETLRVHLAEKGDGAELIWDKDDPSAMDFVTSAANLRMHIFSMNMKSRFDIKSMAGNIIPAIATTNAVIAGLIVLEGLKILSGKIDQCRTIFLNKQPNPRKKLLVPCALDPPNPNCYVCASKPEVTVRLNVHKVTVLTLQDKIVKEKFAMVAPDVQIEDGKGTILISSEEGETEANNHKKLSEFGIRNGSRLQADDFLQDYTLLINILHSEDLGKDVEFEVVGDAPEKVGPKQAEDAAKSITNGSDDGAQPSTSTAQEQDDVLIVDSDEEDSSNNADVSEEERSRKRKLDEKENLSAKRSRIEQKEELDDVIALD
- Sequence (Q9UBE0 whole entry partner): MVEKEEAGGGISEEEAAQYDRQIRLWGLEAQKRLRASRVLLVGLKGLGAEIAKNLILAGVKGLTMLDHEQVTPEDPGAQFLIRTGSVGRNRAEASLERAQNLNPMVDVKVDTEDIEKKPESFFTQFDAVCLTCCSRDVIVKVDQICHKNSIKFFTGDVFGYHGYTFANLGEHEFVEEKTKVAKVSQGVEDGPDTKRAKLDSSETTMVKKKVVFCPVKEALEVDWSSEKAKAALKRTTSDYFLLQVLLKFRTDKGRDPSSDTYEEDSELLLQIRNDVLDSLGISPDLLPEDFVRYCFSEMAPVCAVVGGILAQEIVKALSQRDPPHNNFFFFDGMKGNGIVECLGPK
- protocolNotes: SAE HTRF enzyme assay
- Type: biochemical
- conditionContext: class symbols A/B/C
pIC50: −log10 of the molar value.
recordedEndpoint: pIC50

1) NS(=O)(=O)OC[C@H]1C[C@@H](Nc2ncncc2C(=O)c2cc([C@@H]3OCCc4ccc(F)cc43)cs2)C[C@@H]1O (single isomer, unassigned) [I-267]: > 8.00
2) Cc1sc(C(=O)c2cncnc2N[C@@H]2C[C@H](COS(N)(=O)=O)[C@@H](O)C2)cc1[C@@H]1OCCc2ccc(C(F)(F)F)cc21 (single isomer, unassigned) [I-258a]: > 8.00
3) NS(=O)(=O)OC[C@H]1C[C@@H](Nc2ncncc2C(=O)c2cc(CSc3ccccc3)cs2)C[C@@H]1O: 7.00 to 8.00
4) Cc1sc(C(=O)c2cncnc2N[C@@H]2C[C@H](COS(N)(=O)=O)[C@@H](O)C2)cc1[C@H](O)c1cccc(Cl)c1 (single isomer, unassigned) [I-11a]: > 8.00
5) CC(O)(c1cccc(Cl)c1)c1csc(C(=O)c2cncnc2N[C@@H]2C[C@H](COS(N)(=O)=O)[C@@H](O)C2)c1 (single isomer, unassigned) [I-5a]: 7.00 to 8.00
6) CO[C@H](c1cccc(Cl)c1)c1cc(C(=O)c2cncnc2N[C@@H]2C[C@H](COS(N)(=O)=O)[C@@H](O)C2)sc1Cl (single isomer, unassigned) [I-90a]: > 8.00
7) NC(c1cccc(Cl)c1)c1cc(C(=O)c2cncnc2NC2CC(O)C(COS(N)(=O)=O)C2)sc1Cl (mixture of isomers): > 8.00
8) NS(=O)(=O)OC[C@H]1C[C@@H](Nc2ncncc2C(=O)c2cc(CN3CCc4ccccc4C3)cs2)C[C@@H]1O: 7.00 to 8.00
9) N[C@H](c1cccc(Cl)c1)c1cc(C(=O)c2cncnc2N[C@@H]2C[C@H](COS(N)(=O)=O)[C@@H](O)C2)sc1Cl (single isomer, unassigned) [I-15b]: > 8.00
10) NS(=O)(=O)OC[C@H]1C[C@@H](Nc2ncncc2C(=O)c2ccc(CO)o2)C[C@@H]1O: 6.00 to 7.00
11) NS(=O)(=O)OC[C@H]1C[C@@H](Nc2ncncc2C(=O)c2cc(Cc3cccc(Cl)c3)c([C@@H]3CCCO3)s2)C[C@@H]1O (mixture of isomers) [I-41]: > 8.00
12) N[C@H](c1cccc(Cl)n1)c1cc(C(=O)c2cncnc2N[C@@H]2C[C@H](COS(N)(=O)=O)[C@@H](O)C2)sc1Cl (single isomer, unassigned) [I-25a]: > 8.00

* * *

- assayedTarget: recombinant human SAE enzyme (Homo sapiens (Human))
- protocolNotes: SAE HTRF enzyme assay
- Format: biochemical
- conditionContext: SAE inhibition at compound concentration 0.111 μM
Percent Inhibition for assorted compounds
recordedEndpoint: Percent Inhibition (%)

1) NS(=O)(=O)OC[C@H]1C[C@@H](Nc2ncncc2C(=O)c2cc([C@@H]3OCC(F)(F)c4ccc(Cl)cc43)cs2)C[C@@H]1O.NS(=O)(=O)OC[C@H]1C[C@@H](Nc2ncncc2C(=O)c2cc([C@H]3OCC(F)(F)c4ccc(Cl)cc43)cs2)C[C@@H]1O (mixture of isomers): 98
2) CN1Cc2ccc(Cl)cc2[C@@H]1c1cc(C(=O)c2cncnc2N[C@@H]2C[C@H](COS(N)(=O)=O)[C@@H](O)C2)sc1Cl (single isomer, unassigned) [I-284b]: 99
3) NS(=O)(=O)OC[C@H]1C[C@@H](Nc2ncncc2C(=O)c2cc([C@H]3OCC4(CC4)c4ccccc43)cs2)C[C@@H]1O (mixture of isomers): 98
4) NS(=O)(=O)OC[C@H]1C[C@@H](Nc2ncncc2C(=O)c2cc(C3SCCc4ccc(Cl)cc43)cs2)C[C@@H]1O (single isomer, unassigned) [I-320a]: 27
5) NS(=O)(=O)OC[C@H]1C[C@@H](Nc2ncncc2C(=O)c2cc([C@@H]3OCC(F)(F)c4ccc(Cl)cc43)cs2)C[C@@H]1O (single isomer, unassigned) [I-289b]: 99
6) Cc1sc(C(=O)c2cncnc2N[C@@H]2C[C@H](COS(N)(=O)=O)[C@@H](O)C2)cc1[C@@H]1OCC(F)(F)c2ccc(Cl)cc21.Cc1sc(C(=O)c2cncnc2N[C@@H]2C[C@H](COS(N)(=O)=O)[C@@H](O)C2)cc1[C@H]1OCC(F)(F)c2ccc(Cl)cc21 (mixture of isomers): 99
7) Cc1nc2c(s1)[C@H](c1cc(C(=O)c3cncnc3N[C@@H]3C[C@H](COS(N)(=O)=O)[C@@H](O)C3)sc1C)OCC2 (single isomer, unassigned) [I-305a]: 28
8) Cc1nc2c(s1)CCO[C@H]2c1cc(C(=O)c2cncnc2N[C@@H]2C[C@H](COS(N)(=O)=O)[C@@H](O)C2)sc1C (mixture of isomers) [I-287]: 97
9) CN1CCc2ccc(Cl)cc2[C@@H]1c1cc(C(=O)c2cncnc2N[C@@H]2C[C@H](COS(N)(=O)=O)[C@@H](O)C2)sc1Cl (single isomer, unassigned) [I-311a]: 65
10) NS(=O)(=O)OC[C@H]1C[C@@H](Nc2ncncc2C(=O)c2cc([C@@H]3OCCc4ccc(F)cc43)c(Cl)s2)C[C@@H]1O (single isomer, unassigned) [I-294b]: 98
11) Cc1sc(C(=O)c2cncnc2N[C@@H]2C[C@H](COS(N)(=O)=O)[C@@H](O)C2)cc1[C@@H]1OCCc2ccc(C#N)cc21.Cc1sc(C(=O)c2cncnc2N[C@@H]2C[C@H](COS(N)(=O)=O)[C@@H](O)C2)cc1[C@H]1OCCc2ccc(C#N)cc21 (mixture of isomers): 94
12) NS(=O)(=O)OC[C@H]1C[C@@H](Nc2ncncc2C(=O)c2cc([C@@H]3OCCc4cc(F)c(F)cc43)c(Cl)s2)C[C@@H]1O (single isomer, unassigned) [I-290a]: 62
13) Cc1sc(C(=O)c2cncnc2N[C@@H]2C[C@H](COS(N)(=O)=O)[C@@H](O)C2)cc1[C@@H]1OCCc2sc(C(F)(F)F)nc21 (mixture of isomers): 97
